# System: HCV replicon (5-2 Luc replicon-comprising cells)
# ASSAY COMMENT: HCV replicon luciferase emission assay
# Type: cell-based
# ASSAY SETUP: Hepatitis C virus; 5-2 Luc replicon cells, 24 hours with compound, 50% reduction in luciferase emission
REPORTED ENDPOINT: IC50 (µM)
Reply numerically in µM, unit not repeated.

What is its IC50 for HCV replicon (5-2 Luc replicon-comprising cells)? Entry: O=C1c2ccccc2-c2onc3ccc(N4CC4)c1c23
0.8
